- Assayed system: recombinant SARS-CoV-2 spike S1 RBD (R319-F541), C-terminal 6-His (SARS-CoV-2, UniProt P0DTC2 319-541)
- Protocol notes: lateral flow NC50, RBD-AuNP vs immobilised ACE2
Property name: IC50 (µg/mL)
The reply should be a number in µg/mL, with the unit left off.

Worked set:
1035709 (antibody, V domains shown) VH: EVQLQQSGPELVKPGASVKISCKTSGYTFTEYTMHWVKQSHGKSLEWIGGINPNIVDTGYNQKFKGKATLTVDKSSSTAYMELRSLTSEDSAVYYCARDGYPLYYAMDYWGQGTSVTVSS VL: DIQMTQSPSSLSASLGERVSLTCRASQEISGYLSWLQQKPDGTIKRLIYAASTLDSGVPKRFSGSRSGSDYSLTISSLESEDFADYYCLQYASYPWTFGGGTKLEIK; 0.63
1035224 (antibody, V domains shown) VH: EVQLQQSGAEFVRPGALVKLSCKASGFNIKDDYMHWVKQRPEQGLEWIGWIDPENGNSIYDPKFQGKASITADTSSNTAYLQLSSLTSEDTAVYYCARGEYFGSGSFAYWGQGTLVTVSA VL: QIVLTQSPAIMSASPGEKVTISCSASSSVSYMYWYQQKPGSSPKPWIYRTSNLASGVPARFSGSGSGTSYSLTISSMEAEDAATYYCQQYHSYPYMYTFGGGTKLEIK; 0.66

Query binder follows.
Input: What measured IC50 goes with 1035240 (antibody, V domains shown) VH: QVQLQQSGAELARPGASVKMSCKASGYTFTTYTMHWVKQRPGQGLEWIGYINPSSGYTNYNQKFKDKATLTADTSSSTAYMQLSSLTSEDSAVYYCARRNPLYAMDYWGQGTSVTVSS VL: DIKMTQSPSSMYASLGERVTITCKASQDINSYLNWFQQKPGKSPKTLIYRANRLVDGVPSRFSGSGSGQDYSLTISSLEYEDMGIYYCLQYDEFPYTFGGGTKLEIK ?
Output: 0.34
